TGI values by entry
- Tested on: NCI-H23 lung
- experiment_summary: NCI tumour cell line growth inhibition, 48 h

| compound | TGI |
| --- | --- |
| CCN(CC)CC(C(=O)Nc1c(C)cccc1C)/C(C)=N\NC(=O)c1ccncc1 (stereo unspecified) | > 100 µM |
| C/C(=N\NC(=S)NC(C)(C)C)c1ccccn1 | > 100 µM |
| O=S(=O)(O)c1ccc2c(N=Nc3ccc(F)cc3)c(O)c(S(=O)(=O)O)cc2c1 | > 100 µM |
| O=c1oc2c(ccc3ccccc32)cc1C1=CSC2=NCCN12 | > 100 µM |
| COc1cc2c3c(n(C)c(=O)c2cc1OC)-c1cc2c(cc1/C3=C\C(N)CN)OCO2 (stereo unspecified) | 5.58 µM |
| O=C1OCC/C1=C/c1ccc(N=Nc2c(O)ccc3ccccc23)cc1 | 44.8 µM |

====

- Tested on: U251 CNS
- experiment_summary: NCI tumour cell line growth inhibition, 48 h

| compound | TGI |
| --- | --- |
| Nc1n[nH]c2ccc([C@@H]3Nc4ccc5[nH]ncc5c4[C@H]4C5C=CC(C5)[C@@H]34)cc12 (some centres not stated) | 22.2 µM |
| CC(C)(C#N)c1cc(C(=O)Nc2cc(Nc3ncccc3-c3ncnc4nc[nH]c34)ccc2F)cc(C(F)(F)F)c1 | > 10 µM |
| O=c1oc(-c2ccccc2)c(-c2ccccc2)n1-c1ccc(Br)cc1 | > 100 µM |
| CC#CC1C(OC(=O)c2ccccc2)CCCC1(CI)N=[N+]=[N-] (configuration not stated) | > 100 µM |
| CCCOc1nc(SCCC)nc2c1cnn2-c1ccccc1 | > 100 µM |
| CC(C)(C)OC(=O)N/N=C(/N)Cc1ccccc1 | > 100 µM |
| CC(=O)N1N(c2ccc([N+](=O)[O-])cc2)C(=O)C1(C)C | 52.8 µM |
| O=C(CN(/C=C/C(=O)C(F)(F)F)c1ccccc1)c1ccc(Cl)c(Cl)c1 | 28.1 µM |
| Cc1c(Cl)cccc1NC1=C(Cl)C(=O)N(Cc2ccccc2)C1=O | 20.1 µM |
| CCCCCCCOc1c(OC)cc(C2CC(=O)Nc3c2c(C)nn3-c2nc3ccccc3[nH]2)cc1OC (configuration not stated) | > 100 µM |
| O=C(c1cccnc1)c1cc(-c2ccccn2)c(=O)n2ccccc12 | > 100 µM |
| CC(C)CC(NC(=O)C(CCI)Cc1ccccc1)C(=O)Nc1ccccc1 (configuration not stated) | > 100 µM |
| O=C1NC(=O)C(COCc2ccccc2)C2=C1SCCC2 (configuration not stated) | > 100 µM |
| CC(C)c1ccc(Nc2nccc(-c3cnn4ncccc34)n2)cc1 | > 9.71 µM |
| COc1cc(C(=O)/C=C/c2cccnc2Nc2ccccc2)cc(OC)c1OC | 2.39 µM |
| CC(C)(CO)NC(=O)Nc1c(C(F)(F)F)cc(-c2ccccc2)[nH]c1=O | > 100 µM |
| CCc1nnc(-c2nsc3ccccc23)s1 | > 100 µM |
| Clc1nc(Cl)c(-c2ccccc2)c(Cl)n1 | 10 µM |
| CSc1ccccc1C#Cc1ccccc1C#CCCCCO | 22.7 µM |
| CC1=N[C@](C)(C2CC3C=CC2C3=O)COC1=O (some centres not stated) | > 100 µM |
| Cc1cc2nc(-c3c(F)cccc3F)n(Cc3c(F)cccc3F)c2cc1C | 24.1 µM |
| C=C1CCC2[C@@H](CCC3[C@]2(C)CCC[C@]3(C)C(=O)OC)C1CCO (some centres not stated) | 26.4 µM |
